# targetSystem: T1, 4H566-AA
# T1 chain: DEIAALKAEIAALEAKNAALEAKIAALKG
# protocolNotes: two-hybrid library CCmax;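 further: natural log of median RNA to DNA barcode read ratio; higher means stronger binding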
# reportedConditions: mean of both orientations

{"binder": "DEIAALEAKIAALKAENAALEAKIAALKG [4H342-AA]", "interaction score": 2.31}
{"binder": "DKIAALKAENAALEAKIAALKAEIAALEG [4H2729-AA]", "interaction score": 0.192}
{"binder": "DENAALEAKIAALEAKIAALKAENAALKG [4H1324-AA]", "interaction score": -1.31}
{"binder": "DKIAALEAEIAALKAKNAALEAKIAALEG [4H2165-AA]", "interaction score": 0.482}
{"binder": "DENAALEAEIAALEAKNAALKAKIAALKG [4H1086-AA]", "interaction score": -0.902}
{"binder": "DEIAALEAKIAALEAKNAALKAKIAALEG [4H317-AA]", "interaction score": 1.74}
{"binder": "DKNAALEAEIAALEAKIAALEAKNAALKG [4H3112-AA]", "interaction score": -1.22}

Hello, the source for this data is paper PMC10397247, in case you need it.
